Give IC50 for every item shown.
Molecular target: IRAK4 (Homo sapiens)
Construct: His (N); TEV cleavage site (N)
Sequence (Q9NWZ3 whole entry): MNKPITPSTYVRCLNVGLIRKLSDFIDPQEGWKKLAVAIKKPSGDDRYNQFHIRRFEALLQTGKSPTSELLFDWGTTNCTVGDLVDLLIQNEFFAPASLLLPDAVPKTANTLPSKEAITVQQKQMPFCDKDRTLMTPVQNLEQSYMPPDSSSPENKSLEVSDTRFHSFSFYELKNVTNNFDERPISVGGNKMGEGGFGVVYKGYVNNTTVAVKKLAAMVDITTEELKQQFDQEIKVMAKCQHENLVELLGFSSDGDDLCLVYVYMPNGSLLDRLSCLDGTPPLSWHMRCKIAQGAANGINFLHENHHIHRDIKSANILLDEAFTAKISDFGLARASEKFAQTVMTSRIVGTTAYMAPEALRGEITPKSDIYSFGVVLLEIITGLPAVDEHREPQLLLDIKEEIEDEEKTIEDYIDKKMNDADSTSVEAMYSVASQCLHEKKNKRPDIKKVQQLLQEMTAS
Experiment: IRAK4 Enzymatic Assay
Details: His-TEV-IRAK4 20 ng/well, ATP 2 μM, STK1-biotin peptide 300 nM, 3 hours at 30° C., FlashPlate radioactivity

molecule: CCOCC(=O)N1CCC(n2cc(-c3cnc(-c4cccc(-c5cnn(C)c5)c4)nc3)cn2)CC1 [Example 111]
IC50: 0.1 to 1 µM

molecule: CN(C)C[C@H]1CC[C@H](n2cc(-c3cnc(-c4cccc(-c5cnn(C)c5)c4)nc3)cn2)CC1 [Example 232]
IC50: < 0.1 µM

molecule: COCC1CCCN(C(=O)Cn2cc(-c3cnc(-c4cccc(-c5cnn(C)c5)c4)nc3)cn2)C1 (stereo not drawn) [Example 88]
IC50: 0.1 to 1 µM

molecule: Cn1cc(-c2cccc(-c3ncc(-c4cnn(CCN5CCCC5)c4)cn3)c2)cn1 [Example 58]
IC50: 0.1 to 1 µM

molecule: Cc1cc(-c2cccc(-c3ncc(-c4cnn([C@@H]5CCCS(=O)(=O)C5)c4)cn3)c2)cnn1 (single isomer, unassigned) [Example 241]
IC50: 0.1 to 1 µM

Count: 3. Required value per item: IC50.
1. Cn1cc(-c2cccc(-c3ncc(-c4cnn([C@H]5CC[C@H](O)CC5)c4)cn3)c2)cn1 [Example 182]
2. Cn1cc(-c2cccc(-c3ncc(-c4cnn(C5CCN(c6ccccc6F)CC5)c4)cn3)c2)cn1 [Example 175]
3. Cn1cc(-c2cccc(-c3ncc(-c4cnn(CC(=O)N5CC6CCC(C5)O6)c4)cn3)c2)cn1 [Example 94]

< 0.1 µM
0.1 to 1 µM
0.1 to 1 µM

Count: 7. Required value per item: IC50.
1. Cn1cc(-c2cccc(-c3ncc(-c4cnn([C@H]5CC[C@H](C(=O)NC6CC6)CC5)c4)cn3)c2)cn1 [Example 170]
2. CC1CN(C(=O)Cn2cc(-c3cnc(-c4cccc(-c5cnn(C)c5)c4)nc3)cn2)CCO1 (stereo not drawn) [Example 80]
3. Cn1cc(-c2cccc(-c3ncc(-c4cnn(C5CCN(C(=O)C(F)(F)F)CC5)c4)cn3)c2)cn1 [Example 4]
4. Cn1cc(-c2cccc(-c3ncc(-c4cnn([C@H]5CC[C@]6(CCC(=O)N6C)CC5)c4)cn3)c2)cn1 [Example 285]
5. CNC(=O)[C@H]1CC[C@H](n2cc(-c3cnc(-c4cccc(-c5cnn(C)c5)c4)nc3)cn2)CC1 [Example 143]
6. Cn1cc(-c2cccc(-c3ncc(-c4cnn(C5CCN(C(=O)C(O)C(F)(F)F)CC5)c4)cn3)c2)cn1 (stereo not drawn) [Example 115]
7. Cc1cc(-c2cccc(-c3ncc(-c4cnn(C5CCOCC5)c4)cn3)c2)cnn1 [Example 138]

["< 0.1 µM", "0.1 to 1 µM", "0.1 to 1 µM", "< 0.1 µM", "< 0.1 µM", "0.1 to 1 µM", "0.1 to 1 µM"]
